# System: NCI-H522
# procedureDetails: NCI tumour cell line growth inhibition, 48 h
Active and inactive are the calls of the source. Rule as the data show it: active = GI50 up to about 1.1 µM and inactive = higher.
Record form. Attribute: GI50. Fill in for each entry.

Check out these entries, answers already filled in.
>  <compound>
Cc1cc([N+](=O)[O-])ccc1Nc1cccc(Cl)c1C

>  <GI50>
16.1 µM (inactive)

$$$$
>  <compound>
C=C(C)[C@@H]1CC[C@]2(CO)CC[C@]3(C)[C@H](CC[C@@H]4[C@@]5(C)CC[C@H](O)C(C)(C)[C@@H]5CC[C@]43C)[C@@H]12

>  <GI50>
20.4 µM (inactive)

$$$$
>  <compound>
O=C(c1ccccc1)c1c(-c2ccccc2)sc2nc3ccccc3nc12

>  <GI50>
> 100 µM (inactive)

$$$$
>  <compound>
CC(O)[C@@]1(c2ccccc2)CC2(CCN(C)CC2)O[C@H]1C (some centres undefined)

>  <GI50>
> 100 µM (inactive)

$$$$
>  <compound>
COc1ccc(-c2cc(=O)c3c(O)c(O)c(OC)cc3o2)cc1O

>  <GI50>
53.5 µM (inactive)

$$$$

// for each compound below, give its GI50
1. CCOC(=O)c1c2ccccc2n2c(N)c(C(N)=O)nnc12
2. COC(=O)C(=O)C(C#N)c1c(Cl)cccc1Cl (centres undefined)
3. CC1=NN(c2ccc(C)cc2)C2(C1)SCC(=O)N2c1nc2ccccc2s1 (centres undefined)
4. Cc1cc(C)nc(NS(=O)(=O)c2ccc(NNC(=O)c3cccc4c(NNc5ccc(S(=O)(=O)Nc6nc(C)cc(C)n6)cc5)c5ccccc5nc34)cc2)n1

# output
28.8 µM (inactive)
> 100 µM (inactive)
16.7 µM (inactive)
18.1 µM (inactive)

* * *

# Tested on: TK-10
# procedureDetails: NCI tumour cell line growth inhibition, 48 h
The source made the active and inactive calls. Rule as the data show it: active = GI50 up to about 1.1 µM and inactive = higher.
Form entry, call: pick from class 1 = active, class 0 = inactive

# input // return assay outcome for Clc1ccc(-c2ccc(-c3nnc(COc4ccc(OCc5nnc(-c6ccc(-c7ccc(Cl)cc7Cl)o6)o5)c(Cl)c4)o3)o2)c(Cl)c1
# output class 0

# input // return assay outcome for O=C(CSc1nnc(-c2ccc(/N=C\c3ccc(Cl)cc3)cc2)o1)Nc1ccc(Cl)cc1
# output class 0

# input // return assay outcome for CC(=O)c1cc(S(=O)(=O)c2ccc(O)c(C(C)=O)c2)ccc1O
# output class 0

# input // return assay outcome for COc1ccc2oc3c(C)cc4c(OC)nnc(OC)c4c3c2c1
# output class 0

* * *

# Tested on: MDA-MB-435
# procedureDetails: NCI tumour cell line growth inhibition, 48 h
Calls of active or inactive are those of the source. Cut-off read from the data, not from the text of the source: active = GI50 up to about 1.1 µM and inactive = higher.
Form entry, call: pick from 1 (yes) = active, 0 (no) = inactive

Solved entries:
>  <molecule>
O=c1c(-c2ccc(Cl)cc2)nnc2n(Cc3ccccc3)c3ccccc3n12

>  <class>
0 (no)

$$$$
>  <molecule>
CN(C)CCN1C(=O)N(CCN(C)C)c2c3cc(O)ccc3nc3c([N+](=O)[O-])ccc1c23

>  <class>
0 (no)

$$$$
>  <molecule>
CC1=C/C(=C(/c2ccc(O)c(C)c2)c2ccccc2C(=O)O)C=CC1=O

>  <class>
0 (no)

$$$$
>  <molecule>
CCOC(=O)Nc1ccc2c(c1)c(CCCCCCc1nc3ccccc3c3ccc(NC(=O)OCC)cc13)nc1ccccc12

>  <class>
0 (no)

$$$$
>  <molecule>
O=C(Cc1nccc2c1[nH]c1ccccc12)OC1C#CCSCC#C/C=C\1 (stereo not given)

>  <class>
0 (no)

$$$$

# input // return assay outcome for COc1ccc2nc3cc([N+](=O)[O-])ccc3c(NNc3ccc(Cl)cc3)c2c1
# output 0 (no)

# input // return assay outcome for O=C(O)CCCC#CCCCC(=O)O
# output 0 (no)

# input // return assay outcome for CC1(C)COC2=C(C1)C(=O)c1ccccc1C2=O
# output 1 (yes)

# input // return assay outcome for CC(C)(C)c1cc2c(OC/C=C/c3ccccc3)c(c1)Cc1cc(C(C#N)(OC/C=C/c3ccccc3)OC/C=C/c3ccccc3)cc(c1OC/C=C\c1ccccc1)Cc1cc(C(C)(C)C)cc(c1OC/C=C/c1ccccc1)Cc1cc(C(C#N)(OC/C=C\c3ccccc3)OC/C=C/c3ccccc3)cc(c1OC/C=C\c1ccccc1)C2 (stereo not given)
# output 0 (no)

# input // return assay outcome for COc1ccc([N+](=O)[O-])c2c(NCCCN(C)C)ccnc12
# output 0 (no)

* * *

Record form. Attribute: GI50. Fill in for each entry.
# System: KM-20L2
# procedureDetails: NCI tumour cell line growth inhibition, 48 h
Activity calls are given as the source filed them. No stated cut-off is given here; in the data, active = GI50 up to about 1.1 µM and inactive = higher.

Check out these entries, answers already filled in.
>  <molecule>
N#C[C@H](OC1OC(COC2OC(CO)C(O)C(O)C2O)C(O)C(O)C1O)c1ccccc1 (some centres undefined)

>  <systemTested>
KM-20L2

>  <GI50>
> 250 µM (inactive)

$$$$
>  <molecule>
O=[N+]([O-])c1ccc2nc(/C(=N/Nc3ccccc3)C(O)c3ccc(Cl)cc3Cl)c(O)nc2c1 (centres undefined)

>  <systemTested>
KM-20L2

>  <GI50>
> 100 µM (inactive)

$$$$
>  <molecule>
COc1ccc(OC2(c3cc(OC)ccc3OC)OC(=O)c3ccccc32)cc1 (centres undefined)

>  <systemTested>
KM-20L2

>  <GI50>
> 100 µM (inactive)

$$$$

As a next step, examine the molecule that follows.
# input GI50 for COc1cc(/C=C/c2ccc(OC)c(OC)c2OC)cc(OC)c1OC ?
# output 20.2 µM (inactive)

* * *

# Tested on: UACC-62
# procedureDetails: NCI tumour cell line growth inhibition, 48 h
Active and inactive are the calls of the source. Rule as the data show it: active = GI50 up to about 1.1 µM and inactive = higher.
Form entry, call: pick from YES = active, NO = inactive

>  <compound>
COc1cccc(NC(=O)/C(Cc2nc3ccccc3nc2C)=N/NC(=O)C[n+]2ccccc2)c1

>  <class>
NO

$$$$
>  <compound>
COc1ccc2nc3ccccc3c(NCCCCCN(CCCl)CCCl)c2c1

>  <class>
YES

$$$$
>  <compound>
CC(=O)NC1C(OCc2ccccc2)OC(COC(=O)CCCCCCCCCCNC(=O)c2cccc3c(=O)c4ccccc4[nH]c23)C(O)C1OC(C)C(=O)NC(C)C(=O)NC(CCC(N)=O)C(N)=O (stereo not given)

>  <class>
NO

$$$$
>  <compound>
O=C(CN1c2ccccc2Sc2ccccc21)N1CCNCC1

>  <class>
NO

$$$$
>  <compound>
Cc1c2cccc-2ccc2c1[nH]c1ccccc12

>  <class>
NO

$$$$

# input // return assay outcome for O=c1[nH]c2ccc(C(F)(F)F)cc2nc1Cc1ccccc1
# output NO

# input // return assay outcome for O=C(N1CCN(c2ccccc2)CC1)N(C(=O)C1(c2ccc(Cl)cc2)CCCC1)S(=O)(=O)c1ccccc1
# output NO

# input // return assay outcome for C=CCCC1(CCP(=O)(c2ccccc2)c2ccccc2)OCCO1
# output NO

# input // return assay outcome for Cc1ncc([N+](=O)[O-])n1CCNC(=O)CCCn1cnc([N+](=O)[O-])n1
# output NO

# input // return assay outcome for O=C1/C(=C\c2cccs2)Oc2ccccc21
# output NO

* * *

# Tested on: HOP-62
# procedureDetails: NCI tumour cell line growth inhibition, 48 h
Active and inactive are the calls of the source. Cut-off read from the data, not from the text of the source: active = GI50 up to about 1.1 µM and inactive = higher.
Form entry, call: pick from label 1 for active, label 0 for inactive

>  <compound>
CC1=C/C(=C(/c2ccc(O)c(C)c2)c2ccccc2C(=O)O)C=CC1=O

>  <class>
label 0

$$$$
>  <compound>
Nc1c2cc3ccc2nc2ccc(cc12)OCCOCCOCCOCCOCCOCCO3

>  <class>
label 0

$$$$
>  <compound>
O=C(CSc1nnc(-c2ccc(/N=C\c3ccc(Cl)cc3)cc2)o1)Nc1ccc(Cl)cc1

>  <class>
label 0

$$$$
>  <compound>
C/C(=N/NC(=S)N1CCCCC1)c1ccccc1O

>  <class>
label 0

$$$$
>  <compound>
Cc1ccc(-c2cn3c(nc4ccccc43)c(-c3ccccc3)n2)cc1

>  <class>
label 0

$$$$
>  <compound>
COc1c(C)c(C/C=C(\C)CC/C=C(\C)CCC=C(C)C)c(OC)c(OC)c1OC

>  <class>
label 0

$$$$
>  <compound>
CC1(C)COC2=C(C1)C(=O)c1ccccc1C2=O

>  <class>
label 0

$$$$
>  <compound>
O=c1[nH]c2cc([N+](=O)[O-])c(N/N=C/c3ccc(Cl)cc3Cl)c([N+](=O)[O-])c2[nH]1

>  <class>
label 0

$$$$
>  <compound>
CC1=NN(c2ccc(C)cc2)C2(C1)SCC(=O)N2c1nc2ccccc2s1 (stereo not given)

>  <class>
label 0

$$$$

Next, consider the following compound.
# input // return assay outcome for CC(C)n1c2c([n+](C)c1/C=C/c1ccccc1)C(=O)c1ccccc1C2=O
# output label 1

* * *

# Test system: NCI-H23
# procedureDetails: NCI tumour cell line growth inhibition, 48 h
Calls of active or inactive are those of the source. No stated cut-off is given here; in the data, active = GI50 up to about 1.1 µM and inactive = higher.
Form entry, call: pick from y (active), n (inactive)

>  <compound>
COc1ccc(-c2nnc(CCCCCCCCc3nnc(-c4ccc(OC)cc4)o3)o2)cc1

>  <class>
n

$$$$
>  <compound>
CC1=C2C(=CC(C)(C)[C@@H]2O)C(=O)[C@](C)(O)C12CC2 [ILLUDIN M]

>  <class>
y

$$$$
>  <compound>
N/C(=N\c1ccc(Cl)c(Cl)c1)c1ccccc1N

>  <class>
n

$$$$
>  <compound>
CC(C)=CCC/C(C)=C/C=C/C(C)=C/C1C[C@@]2(C(O)O1)[C@H](CCCO)/C(=C(/C)C=O)CC[C@]2(C)O (stereo partly specified)

>  <class>
n

$$$$
>  <compound>
COc1ccc2c(ccc3c(C(=O)NCCCN(C)CCCNC(=O)c4cn(C)c5c4ccc4cc(OC)ccc45)cn(C)c32)c1

>  <class>
n

$$$$

Next, consider the following compound.
# input // return assay outcome for c1ccc(C2=NN=C3C(c4ccccc4)=Nc4ccccc4N3C2)cc1
# output n
